- study target: Serine/threonine-protein kinase Nek2 (Homo sapiens);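 note: mean inhibition value from the GSK PKIS kinase screening panel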
- conditions: at 0.1 µM

{"structure string": "CCOc1ccc2c(-c3ccnc(Nc4cccc(C(F)(F)F)c4)n3)cnn2n1", "inhibition, %": 0.57}
{"structure string": "CNC(=O)c1cc(-c2ccc(F)cc2)cc(-c2ccc(S(=O)(=O)N3CCCC3)cc2)c1N", "inhibition, %": 4.19}
{"structure string": "COc1cc(Nc2nccc(Nc3ccc4c(C)n[nH]c4c3)n2)cc(OC)c1OC", "inhibition, %": 0.97}
{"structure string": "Cc1cccc(Nc2ncc(-c3ccccc3)o2)c1", "inhibition, %": 3.46}
{"structure string": "COc1ccc(-c2oc3ncnc(N)c3c2-c2ccc(NC(=O)Nc3cc(C(F)(F)F)ccc3F)cc2)cc1", "inhibition, %": 5.08}
{"structure string": "CN1CCC(n2cnc(-c3ccc(F)cc3)c2-c2ccnc(N)n2)CC1", "inhibition, %": 2.43}
{"structure string": "CCNC(=O)O[C@H]1CN[C@H](C#Cc2cc3ncnc(Nc4ccc(OCc5cccc(F)c5)c(Cl)c4)c3s2)C1", "inhibition, %": 3.33}
{"structure string": "COc1ccc(-c2nn3ncccc3c2-c2ccnc(Nc3ccc4c(c3)OCCO4)n2)cc1", "inhibition, %": -0.55}
{"structure string": "[O-][S+]1CCN(Cc2ccc(-c3ccc4ncnc(Nc5ccc(OCc6cccc(F)c6)c(Cl)c5)c4c3)o2)CC1", "inhibition, %": 6.03}
{"structure string": "CCn1cc(-c2ccnc3[nH]ccc23)c(-c2cccc(NC(=O)Nc3ccc(OCc4ccccc4)cc3)c2)n1", "inhibition, %": 0.4}
{"structure string": "FC(F)(F)c1cccc(-c2nn3ncccc3c2-c2ccnc(Nc3ccc4c(c3)OCCO4)n2)c1", "inhibition, %": 3.63}
{"structure string": "CC(C)(CO)CNC(=O)c1ccc2c(c1)/C(=N/Nc1ccc(S(N)(=O)=O)cc1)C(=O)N2", "inhibition, %": 0.26}
{"structure string": "CCn1c(-c2nonc2N)nc2cnc(Oc3cccc(NC(=O)c4ccc(N(C)C)cc4)c3)cc21", "inhibition, %": 2.85}
{"structure string": "c1ccc(COc2ccc(Nc3ncnc4ccc(-c5ccco5)cc34)cc2)cc1", "inhibition, %": 1.15}
{"structure string": "CS(=O)(=O)CCNCc1coc(-c2ccc3ncnc(Nc4ccc(OCc5ccccc5)cc4)c3c2)c1", "inhibition, %": 4.2}
{"structure string": "CCn1c(-c2nonc2N)nc2c(C#CC(C)(C)O)ncc(OC3CCNCC3)c21", "inhibition, %": 3.31}
{"structure string": "Cc1ccc2c(-c3ccnc(Nc4ccccc4)n3)c(-c3ccc(F)cc3)nn2n1", "inhibition, %": 4.21}
{"structure string": "COc1ccc2[nH]c3c4[nH]c5ccc(OC)cc5c4c4c(c3c2c1)C(=O)NC4=O", "inhibition, %": 4.36}
{"structure string": "COc1ccc(-c2cc(-c3c[nH]nc3-c3ccccn3)ccn2)cc1", "inhibition, %": 5.8}

Data credit: ChEMBL document CHEMBL1961873
